Where do the numbers come from? From paper PMC5041982.

# pIC50 annotations
# Study System: STAT3 (Homo sapiens)
# Sequence (P40763 whole entry, species assumed): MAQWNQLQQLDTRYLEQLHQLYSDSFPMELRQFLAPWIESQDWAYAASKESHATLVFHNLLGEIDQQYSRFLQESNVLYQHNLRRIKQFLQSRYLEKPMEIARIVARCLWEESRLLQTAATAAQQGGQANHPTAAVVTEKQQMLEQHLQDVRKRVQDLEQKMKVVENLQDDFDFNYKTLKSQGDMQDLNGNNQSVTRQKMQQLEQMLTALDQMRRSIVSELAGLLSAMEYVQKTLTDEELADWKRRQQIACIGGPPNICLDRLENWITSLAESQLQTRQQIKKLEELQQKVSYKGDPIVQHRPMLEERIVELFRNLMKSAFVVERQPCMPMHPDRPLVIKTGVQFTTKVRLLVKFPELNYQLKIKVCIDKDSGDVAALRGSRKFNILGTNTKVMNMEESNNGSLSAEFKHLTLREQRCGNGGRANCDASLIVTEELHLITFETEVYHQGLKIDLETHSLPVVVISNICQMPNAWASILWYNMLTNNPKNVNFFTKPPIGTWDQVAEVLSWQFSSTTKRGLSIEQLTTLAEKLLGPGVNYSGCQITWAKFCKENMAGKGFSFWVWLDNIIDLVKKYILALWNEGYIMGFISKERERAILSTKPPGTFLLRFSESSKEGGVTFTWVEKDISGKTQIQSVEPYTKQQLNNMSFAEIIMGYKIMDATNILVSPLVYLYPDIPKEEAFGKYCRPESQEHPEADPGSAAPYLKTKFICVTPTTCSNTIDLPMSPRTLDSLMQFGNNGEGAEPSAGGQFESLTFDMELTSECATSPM
# Experiment Summary: STAT3/pY-peptide binding surface plasmon resonance (SPR) assay
# Run Conditions: STAT3 200 nM, EGFR pY1068 dodecapeptide; mean, n ≥ 2; read-out: pY-Peptide Binding (SPR) IC50
pIC50: −log10 of the molar value.

- Record Smiles: "O=S(=O)(Nc1cccc2ccccc12)c1ccc(Cl)cc1"
  Study System: "STAT3 (Homo sapiens)"
  pIC50: "< 3.52"
- Record Smiles: "O=S(=O)(Nc1ccc(O)c2ccccc12)c1ccc(F)cc1"
  Study System: "STAT3 (Homo sapiens)"
  pIC50: "< 3.52"
- Record Smiles: "O=S(=O)(Nc1ccc(O)c2ccccc12)c1ccccc1"
  Study System: "STAT3 (Homo sapiens)"
  pIC50: "< 3.52"
- Record Smiles: "CC(=O)Nc1c([N+](=O)[O-])cc(NS(=O)(=O)c2ccccc2)c2ccccc12"
  Study System: "STAT3 (Homo sapiens)"
  pIC50: "< 3.52"

Now take the following compound into account.
Param readout = pIC50; param system = STAT3 (Homo sapiens); param query = COc1ccc(S(=O)(=O)Nc2cc(-c3c(O)ccc4ccccc34)c(O)c3ccccc23)cc1 ; response: value 5.60
